- Test system: ATP;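 also: ATP exposure 15 min at 22 °C before imaging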
- method: switch fluorescence ratio, 500 uM ATP over buffer (Cy3 cluster intensity, sum of 5 cycles each) (fold (ratio)); higher = stronger signal-on switching upon ATP binding; sequences stand for … in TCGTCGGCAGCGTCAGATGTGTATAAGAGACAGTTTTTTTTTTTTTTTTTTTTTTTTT…TC
- measurement.parameters: aptamer strand: ATP DNA aptamer (quencher-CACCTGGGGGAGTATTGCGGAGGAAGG + anchor), 100 nM annealed; ATP concentration: 500 uM
Field: switch fluorescence ratio. Provide a value for each of the sequences that follow.
No unit in the answer, please; the number alone is enough.

(Q) Please supply the value of reported switch fluorescence ratio for the item TAACGGGGGT
(A) 1.02

(Q) Using known records, supply switch fluorescence ratio for ACAAAAATAG
(A) 0.993

(Q) Determine its reported switch fluorescence ratio: TCAGTAGGCA
(A) 1.01

(Q) Name the recorded switch fluorescence ratio of the sequence listed here: TGGTAAAATT
(A) 1.03

(Q) Respond only with switch fluorescence ratio recorded for CCGAAAAGAT
(A) 1.44

(Q) Please indicate switch fluorescence ratio recorded for CGAATCTTTT
(A) 1.01

(Q) Check the records and state switch fluorescence ratio for TTTACATTGT
(A) 1.01

(Q) Identify measured switch fluorescence ratio corresponding to TTGTTGGTCC
(A) 1.16

(Q) Find the measured switch fluorescence ratio of CATGGTTTTT and report it.
(A) 0.999

(Q) Answer with the recorded switch fluorescence ratio for the sequence listed here: TTCAAGATTT
(A) 0.974

(Q) Quickly give me recorded switch fluorescence ratio for ACTTAGAATA
(A) 1.03

(Q) Give a short answer stating reported switch fluorescence ratio for CGGCTAACAA .
(A) 1.02

(Q) Report switch fluorescence ratio for CGAAGACGTA
(A) 1.05

(Q) Answer with the recorded switch fluorescence ratio for the sequence listed here: GATTTGTTTG
(A) 0.985
